Entry source: PubChem BioAssay (NCI)

- System: CCRF-CEM leukemia
- TEST: NCI-60 one-dose screen, 48 h
- CONDITION_DESCRIPTION: 10 µM unless noted
Compounds without any hit were thinned out: in the full panel of roughly 83,000, 20% have a hit. Calls of active or inactive are those of the source. How the source made its calls: active means growth percent below 10; inactive means the rest.
Parameter call: string, one of t (active), f (inactive)

Answered cases to consult:
# COMPOUND, ASSAY_TARGET, ASSIGNED_CLASS
data = [
    ("CC(=O)N1N=C(c2ccc(Nc3nc(Nc4ccc(F)cc4)nc(Nc4ccc(F)cc4)n3)cc2)CC1c1ccccc1 (centres undefined)", "CCRF-CEM leukemia", "t"),
    ("O=C(NCCCN1CCCCC1)c1ccc(-c2nc3ccc4[nH]ncc4c3c3c2CCCC3)cc1", "CCRF-CEM leukemia", "f"),
    ("CN(Cc1ccccc1)c1nc(Cl)c(C2CC(c3ccc4c(c3)OCO4)=NN2c2cc(Cl)cc(Cl)c2)s1 (centres undefined)", "CCRF-CEM leukemia", "f"),
    ("CCCN1C(=O)/C(=c2\\sc3n(c2=O)C2C(NN=3)N(CC)C(=O)N2CC)c2ccccc21 (centres undefined)", "CCRF-CEM leukemia", "f"),
    ("COc1ccc(-c2nnc3n(C)c(=O)c4ccccc4n23)cc1O", "CCRF-CEM leukemia", "f"),
]

Input line: Any idea what this test logged for Cc1ccc(Cc2cnc(NC(=O)c3cc(C)oc3C)s2)cc1 ?
Output line: f

Input line: GET /call?item= CCOC(=O)n1cc(-c2nonc2-c2cn(C)c3ccc(OC)cc23)c2cc(F)ccc21 returns the recorded outcome of this test.
Output line: f

Input line: Per the assay record, what outcome was assigned to Nc1ccc(/C=N/Nc2ccnc3c(N)cccc23)c2cccnc12 ?
Output line: t

Input line: Entry COc1cc2ncnc(Nc3ccc(F)c(Cl)c3)c2cc1OCC(=O)N1CCCCC1 : call = ?
Output line: f

Input line: Hello, I am checking results. What call was entered for COc1ccc(-c2c[nH]c(C(=O)O)c2-c2cc(OC)c(OC)c(OC)c2)cc1 ?
Output line: f

====

- Tested on: PC-3 prostate
- TEST: NCI-60 one-dose screen, 48 h (100 = growth as untreated, 0 = no growth, -100 = all killed)
- CONDITION_DESCRIPTION: 10 µM unless noted
- Procedure: Growth inhibition of the PC-3 human tumor cell line is measured as a screen for anti-cancer activity. Cells are grown in 96 well plates and exposed to the test compound for 48 hours. Compounds are tested at a single concentration, which is 10^-5 M for most compounds. The reported endpoint is percent growth (GI% or GIPRCNT), where numbers from 0 - 100% represent growth inhibition, and numbers from -100% - 0 represent cell death. For example, a value of 40 represents 60% growth inhibition. […]
This is part of a sample that, as a whole, favours compounds with a hit. Of some 83,000 tested, about 20% had one in any assay.
Rule: growth of 80% or more gives true (1); anything lower gives false (0).

# MOLECULE, ASSIGNED_CLASS
measured = [
    ("CCN(CC)/C([O-])=c1\\cccc\\c1=C1\\N=C(c2ccccc2)N=C1[n+]1ccc(-c2ccccc2)cc1", "true (1)"),
    ("CC(=O)N1N=C(c2ccc(F)cc2)CC1c1sc(N(C)Cc2ccccc2)nc1Cl (centres undefined)", "true (1)"),
    ("CN1CCN(Cc2ccc(NC(=O)c3cccc(C#Cc4c(N)ncc5ccc(F)cc45)c3)cc2C(F)(F)F)CC1", "false (0)"),
]

Input line: Decide: is the reported value of growth for CCn1cc(C(=O)NN=C2CCCC2)c(=O)c2ccc(C)nc21 equal to or greater than 80%?
Output line: true (1)

Input line: Could you verify whether the entry C=C1C(=O)O[C@H]2[C@H]1CC/C(CNS(=O)(=O)c1ccc3ccccc3c1)=C\CC[C@@]1(C)O[C@@H]21 shows growth of no less than 80%?
Output line: false (0)

Input line: Say whether COc1ccc(Oc2nc(Nc3ccc(N4CCOCC4)cc3)ncc2NC(=O)c2cc(OC)cc(OC)c2)cc1 shows growth of 80% or more.
Output line: false (0)

Input line: Assess whether reported growth for COc1cc(/C=N/NC(=O)CCN2c3ccccc3Sc3ccccc32)cc(OC)c1OC sits at 80% or higher.
Output line: false (0)

Input line: Would you say Nc1ccc(/C=N/Nc2ccnc3c(N)cccc23)c2cccnc12 shows growth at minimum 80%?
Output line: false (0)

Input line: Entry O=C1/C(=C/c2ccc(F)c(F)c2)CN(C(=O)C(Cl)Cl)C/C1=C\c1ccc(F)c(F)c1 : is its growth no less than 80%?
Output line: false (0)

====

- System: SF-268 CNS
- TEST: NCI-60 one-dose screen, 48 h (100 = growth as untreated, 0 = no growth, -100 = all killed)
- CONDITION_DESCRIPTION: 10 µM unless noted
Compounds without any hit were thinned out: in the full panel of roughly 83,000, 20% have a hit.
The entries below are paired with their reported growth.
Respond numerically; units are % and should not be typed.

# COMPOUND, SCALE_UNIT, RECORDED_RESULT
data = [
    ("COc1ccc(-c2cc3cnc4ccccc4c3oc2=O)cc1", "%", 99.7),
    ("CC1=C2[C@@H](CC1)[C@]1(C)O[C@@](C3CC3)(C[C@H]1OC(=O)CO)[C@H]2OC(=O)/C=C/c1ccccc1", "%", 41),
    ("Cc1c(C(C)(C)O)cn2ncnc(Oc3ccc(NC(=O)Nc4ccc(Cl)c(C(F)(F)F)c4)cc3)c12", "%", 45.3),
    ("N#CSc1c[nH]c2ccc(/C=C/C(=O)/C=C(/C=C/c3ccc4[nH]cc(SC#N)c4c3)OB(F)F)cc12", "%", 2.42),
    ("O=C(Nc1ncc(Cc2cccc(C(F)(F)F)c2)s1)c1ccc(-n2cnnn2)cc1", "%", 55.4),
    ("N=c1ccccn1CCO", "%", 110),
    ("CCOC(=O)c1c(-c2ccc(C)cc2)c(C#N)c(=O)n(-c2cccc(C(F)(F)F)c2)c1N", "%", 97),
    ("C=C[C@]1(C)C=C2CC[C@@H]3C(C)(C)C(=O)CC[C@@]3(C)[C@@H]2CC1", "%", 97.6),
    ("Clc1nccc2c(-c3csc(-c4c[nH]c5ccc(Br)cc45)n3)c[nH]c12", "%", 55.6),
    ("CCNC(=S)n1nc(SC)c(C(=O)OCC)c1N", "%", 92),
]

Input line: I am curious: what growth value has been reported for O=C(Nc1ccccc1C(=O)N/N=C(\c1ccccc1)c1ccccn1)c1ccccc1 ?
Output line: 15.5

Input line: Given the entry COc1ccc(C2=C(CN)C(O)NC(=NCC(=O)c3ccc4ccccc4c3)N2)cc1 (stereo unspecified) , report its measured growth.
Output line: 94.1

Input line: What value of growth has been reported for the following compound? COc1cc2ncnc(Nc3ccc(F)c(Cl)c3)c2cc1OCC(=O)N1CCCCC1
Output line: 80

Input line: What value of growth has been recorded for this entry: c1ccc(-c2cc(-c3cc(-c4ccccc4)on3)no2)cc1
Output line: 90.1

Input line: Entry under review: CC(=O)OC[C@]12CCC(C)(C)C=C1[C@H]1CC[C@@H]3[C@@]4(C)CCCNC(C)(C)[C@@H]4CC[C@@]3(C)[C@]1(C)CC2 . Reported growth?
Output line: 81.2

Input line: Recorded growth for CCCn1nc(C(=O)N2CCCCC2)c2c1CCC(N1CCC(c3ccncc3)CC1)C2 (stereo unspecified) , please?
Output line: 97

Input line: Query: growth; subject: N#Cc1ccccc1-c1ccc(Cn2c(-c3cscn3)nc3c(Cl)cccc32)cc1
Output line: 71.3

Input line: Using the record for CC(C)=CCc1cc(O)c(O)c2oc3cc(O)cc(O)c3c(=O)c12 , report its growth.
Output line: 49.7

Input line: Return reported growth; argument: Fc1ccccc1-c1cnn2cc(-c3ccccc3)cnc12
Output line: 88.9

Input line: Return reported growth; argument: CC(=O)c1c(C)nc2ccccc2c1/C=C/c1cccc(C)c1
Output line: 81.9

Input line: What value of measured growth is listed for C#Cc1cc(C(=O)Nc2ccc(CN3CCN(C)CC3)c(C(F)(F)F)c2)ccc1C ?
Output line: 82.5

====

- Tested on: SF-295 CNS
- TEST: NCI-60 one-dose screen, 48 h
- CONDITION_DESCRIPTION: 100 µM
The panel holds about 83,000 compounds, 20% with a hit somewhere; the sample as a whole holds those more often. Active and inactive are the calls of the source. The calls were made as follows: active = growth percent below 10; inactive = the rest.
Respond with a class label; see t = active, f = inactive

Recorded results for 3 compounds are shown here.
# SMILES_ENTRY, ASSIGNED_CLASS
records = [
    ("CC(=O)/C=C/c1ccc(N(C)Cc2ccc(C(C)(C)C)cc2)cc1", "t"),
    ("COc1ccc(C(=O)/C=C/c2ccc(OCc3cccc(C(F)(F)F)c3)c(OC)c2)cc1OC", "f"),
    ("CC(=O)/C=C/c1ccc(OCc2ccc(Cl)cc2)cc1", "f"),
]

Input line: Can you look up the reported call for CC(=O)/C=C/c1ccc(OCc2ccc(C(C)(C)C)cc2)cc1 for me?
Output line: f

Input line: GET /call?item= CCN(Cc1ccccc1)c1ccc(/C=C2\COc3ccccc3C2=O)cc1 returns the recorded outcome of this test.
Output line: f

Input line: Lab log entry: O=C(/C=C/c1cccc(Oc2ccc(Cl)cc2)c1)c1ccccc1 — outcome as called in the assay?
Output line: t
